System: JAK2 (Homo sapiens, UniProt O60674)
Construct: endogenous in cells
Sequence (O60674 whole entry): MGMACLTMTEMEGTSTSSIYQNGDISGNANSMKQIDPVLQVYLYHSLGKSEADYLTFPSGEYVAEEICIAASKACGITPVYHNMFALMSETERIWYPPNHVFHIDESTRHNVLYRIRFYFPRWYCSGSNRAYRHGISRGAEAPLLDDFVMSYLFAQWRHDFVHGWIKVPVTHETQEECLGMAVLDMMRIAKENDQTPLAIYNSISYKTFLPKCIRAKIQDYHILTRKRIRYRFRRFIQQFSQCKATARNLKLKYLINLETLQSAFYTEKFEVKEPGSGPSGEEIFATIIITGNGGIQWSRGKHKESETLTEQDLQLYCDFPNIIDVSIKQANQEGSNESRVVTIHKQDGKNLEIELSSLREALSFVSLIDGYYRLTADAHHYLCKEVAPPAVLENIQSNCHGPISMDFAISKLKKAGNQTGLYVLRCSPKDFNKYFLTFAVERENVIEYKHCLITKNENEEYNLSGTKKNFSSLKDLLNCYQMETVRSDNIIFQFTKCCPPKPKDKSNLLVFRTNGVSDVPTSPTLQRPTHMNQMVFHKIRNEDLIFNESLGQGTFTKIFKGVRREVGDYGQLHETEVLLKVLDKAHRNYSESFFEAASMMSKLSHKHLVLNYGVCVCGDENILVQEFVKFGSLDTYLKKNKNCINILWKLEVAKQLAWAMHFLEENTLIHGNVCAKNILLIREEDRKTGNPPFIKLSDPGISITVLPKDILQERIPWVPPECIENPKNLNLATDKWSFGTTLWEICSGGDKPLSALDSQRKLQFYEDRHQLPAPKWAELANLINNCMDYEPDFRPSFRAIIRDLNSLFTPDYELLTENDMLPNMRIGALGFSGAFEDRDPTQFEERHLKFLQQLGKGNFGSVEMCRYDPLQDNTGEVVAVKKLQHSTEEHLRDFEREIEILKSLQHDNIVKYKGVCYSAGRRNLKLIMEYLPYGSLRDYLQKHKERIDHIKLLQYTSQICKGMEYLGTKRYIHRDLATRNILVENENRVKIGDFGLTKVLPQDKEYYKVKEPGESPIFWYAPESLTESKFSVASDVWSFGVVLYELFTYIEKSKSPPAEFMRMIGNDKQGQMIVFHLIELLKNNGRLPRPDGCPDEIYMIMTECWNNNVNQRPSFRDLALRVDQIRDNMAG
Measurement Protocol: Kinobeads assay, JAK2
Study Conditions: mixed Molt4/Ramos cell lysate, dot blot detection
Description: The compounds of the present invention as described in the previous examples were tested in a Kinobeads™ assay as described for ZAP-70 (WO-A 2007/137867). […] Bound proteins were then eluted and the presence of JAK2 and JAK3 was detected and quantified using specific antibodies in a dot blot procedure and the Odyssey infrared detection system. Dose response curves for individual kinases were generated and IC50 values calculated. […]
Readout Label: IC50

Molecule	Result
Fc1ccccc1Cn1ncc2cnc(Nc3cnn(CCCN4CCCCC4)c3)nc21	100 to 1000 nM
Cn1cc(Nc2ncc3cnn(Cc4cccc(C#N)c4)c3n2)cn1	1000 to 10000 nM
Cn1cc(Nc2ncc3cnn(Cc4ccccc4C(F)(F)F)c3n2)cn1	1000 to 10000 nM
Cn1cc(Nc2ncc3cnn(Cc4cccc(NS(C)(=O)=O)c4)c3n2)cn1	1000 to 10000 nM
CN1CCCC(Cn2cc(Nc3ncc4cnn(Cc5ccccc5F)c4n3)cn2)C1 (stereo not drawn)	100 to 1000 nM
FC(F)Cn1cc(Nc2ncc3cnn(Cc4ccccc4)c3n2)cn1	1000 to 10000 nM
COc1cc(F)cc(Cn2ncc3cnc(Nc4cnn(C)c4)nc32)c1	100 to 1000 nM
CC(C)c1ccccc1Cn1ncc2cnc(Nc3cnn(C)c3)nc21	1000 to 10000 nM
Cn1cc(Nc2ncc3cnn(-c4ccc(C(=O)NCCO)cc4)c3n2)cn1	1000 to 10000 nM
